System: Fc-tagged human NKp46 (Homo sapiens, UniProt O76036) | Read-out: pKd
Sequence (O76036 22-304): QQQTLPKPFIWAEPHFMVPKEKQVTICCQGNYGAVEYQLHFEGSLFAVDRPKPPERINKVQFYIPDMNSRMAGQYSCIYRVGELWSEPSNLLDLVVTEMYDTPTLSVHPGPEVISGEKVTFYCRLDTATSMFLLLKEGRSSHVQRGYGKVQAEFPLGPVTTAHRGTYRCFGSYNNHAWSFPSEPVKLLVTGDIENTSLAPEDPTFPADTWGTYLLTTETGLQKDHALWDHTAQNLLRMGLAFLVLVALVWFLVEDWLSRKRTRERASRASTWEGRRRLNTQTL
pKd: −log10 of the molar value. Numbered stars: 1 amine (or outer) side, 2 acyl side, 3 side chain; on linkers, the order of the positions; unused ones are H or OH. Bridge positions count the residues as written; N and C are the ends. Square brackets hold non-standard residues; d marks the D form. Peptide text beside a SMILES is read from it. TATA = O=C(CC[*:1])N1CN(C(=O)CC[*:2])CN(C(=O)CC[*:3])C1; Cba = N[C@@H](CC1CCC1)C(=O)O
property name: pKd

[[record]]
molecule = "CC(C)C[C@@H]1NC(=O)[C@H](CC(=O)O)NC(=O)[C@@H](NC(=O)[C@H](C)N)CSCCC(=O)N2CN3CN(C2)C(=O)CCSC[C@H](NC(=O)[C@H](CC(N)=O)NC(=O)[C@H](Cc2c[nH]cn2)NC(=O)[C@H]([C@@H](C)O)NC(=O)[C@H]([C@@H](C)O)NC1=O)C(=O)N[C@@H](CCC(N)=O)C(=O)N[C@@H](Cc1c[nH]c2ccccc12)C(=O)NCC(=O)N[C@@H](C)C(=O)N[C@H](C(=O)N[C@@H](C)C(N)=O)CSCCC3=O [BCY18272, A-(SEQ ID NO: 120)-A] (H-ACDLTTHNCQWGACA-NH2; linker 2-9-14 via TATA)"
property_name = "pKd"
observed_measurement = 5.50

[[record]]
molecule = "CC(C)C[C@@H]1NC(=O)[C@H](Cc2ccc(O)cc2)NC(=O)[C@H](CC(=O)O)NC(=O)[C@@H]2CCCN2C(=O)[C@H](CC(C)C)NC(=O)[C@H](Cc2ccc(O)cc2)NC(=O)[C@@H](NC(=O)[C@H](C)N)CSCCC(=O)N2CN3CN(C2)C(=O)CCSC[C@@H](C(=O)N[C@@H](C)C(N)=O)NC(=O)[C@H](Cc2ccc(O)c(C(C)(C)C)c2)NC(=O)[C@H](CCC(=O)O)NC(=O)[C@H](CC(=O)O)NC(=O)CNC(=O)[C@H](CSCCC3=O)NC1=O [BCY15652, A-(SEQ ID NO: 109)-A]"
property_name = "pKd"
observed_measurement = 7.36

[[record]]
molecule = "CC(=O)N[C@@H]1CSCCC(=O)N2CN3CN(C2)C(=O)CCSC[C@H](NC(=O)[C@H](CC(C)C)NC(=O)[C@H](Cc2ccc(O)cc2)NC(=O)[C@H](CC(=O)O)NC(=O)[C@@H]2CCCN2C(=O)[C@H](CC2CCC2)NC(=O)[C@H](Cc2ccc(O)cc2)NC1=O)C(=O)N[C@H](C)C(=O)N[C@@H](CC(=O)O)C(=O)N[C@@H](CCC(=O)O)C(=O)N[C@@H](Cc1ccc(O)cc1)C(=O)N[C@H](C(N)=O)CSCCC3=O [BCY19693, Ac-(SEQ ID NO: 157)] (Ac-[dC]Y[Cba]PDYLC[dA]DEYC-NH2; linker 1-8-13 via TATA; C-terminus assumed)"
property_name = "pKd"
observed_measurement = 7.77

[[record]]
molecule = "CC[C@H](C)[C@@H]1NC(=O)CNC(=O)[C@H](Cc2c[nH]c3c(C)cccc23)NC(=O)[C@H](CCC(N)=O)NC(=O)[C@@H]2CSCCC(=O)N3CN(CN(C3)C(=O)CCSC[C@@H](C(=O)N[C@@H](C)C(N)=O)NC1=O)C(=O)CCSC[C@H](NC(=O)[C@H](C)N)C(=O)N[C@@H](CC(=O)O)C(=O)N[C@@H](CC(C)C)C(=O)N[C@@H]([C@@H](C)O)C(=O)N[C@@H]([C@@H](C)O)C(=O)N[C@@H](Cc1c[nH]cn1)C(=O)N[C@@H](CC(N)=O)C(=O)N2 [BCY19723, A-(SEQ ID NO: 161)-A]"
property_name = "pKd"
observed_measurement = 5.64

